TARGET_DESC: Tubulin (Bos taurus) (UniProt Q6B856+Q862L2+Q862F3)
ASSAY_NOTES: Displacement of [3H]colchicine from bovine brain tubulin at 5 uM incubated for 10 mins
Assay type: tissue-based
Form field: inhibition (one value per entry).
Note: unit % is implicit; provide only the numeric part.

COc1ccc(N(C)c2nc(C)nc3[nH]ccc23)cc1 = 70
COc1ccc(N(C)c2nc(C)nc(NCC(C)C)c2Cl)cc1 = 57
COc1ccc(N(C)c2nc(C)nc(N)c2Cl)cc1 = 76

Can you share its inhibition? I mean this compound: `Cc1nc(N)c(Cl)c(N(C)c2ccc3c(c2)CCO3)n1` 60

Query (compound): `COc1ccc(N(C)c2nc(C)nc(N)c2C)cc1` ; field requested: inhibition 45

Please look up its inhibition: `CCCNc1nc(C)nc(N(C)c2ccc(OC)cc2)c1Cl` 82

# input compound: `CCCCNc1nc(C)nc(N(C)c2ccc(OC)cc2)c1Cl` ; wanted: its inhibition 84

Consider the compound shown here: `COc1ccc2c(c1)CCCN2c1nc(C)nc(N)c1Cl` What is its recorded inhibition? 61

Quick check: inhibition of `CSc1ccc(N(C)c2nc(C)nc(N)c2Cl)cc1` ? 71

Which measured inhibition value corresponds to `COc1ccc(N(C)c2nc(C)nc(NCc3ccccc3)c2Cl)cc1` ? 14

# lookup: inhibition of `CCCNc1nc(C)nc(N(C)c2ccc3c(OC)cccc3c2)c1Cl` 61

// inhibition lookup, key: `CCNc1nc(C)nc(N(C)c2ccc(OC)cc2)c1Cl` 74

Given `CNc1nc(C)nc(N(C)c2ccc(OC)cc2)c1Cl` , state its recorded inhibition. 68

Fill blank: measured inhibition of the compound `COc1cccc2cc(N(C)c3nc(C)nc(N)c3Cl)ccc12` is ____. 74

###

Tested on: HeLa
ASSAY_NOTES: Antiproliferative activity against wild type human HeLa cells assessed as inhibition of cell growth by SRB assay
Assay type: functional, cell-based
# note: boundary value 200 nM maps to -1; IC50 below it maps to 1

COc1ccc2c(c1)CCCN2c1nc(C)nc(N)c1Cl = -1
COc1ccc(N(C)c2nc(C)nc(NC(C)C)c2Cl)cc1 = -1
COc1cccc2cc(N(C)c3nc(C)nc(N)c3Cl)ccc12 = 1

Does the reported IC50 of the following molecule sit strictly below 200 nM? `COc1ccc(N(C)c2nc(C)nc(N)c2Cl)cc1` 1

Is the reported IC50 for `CCNc1nc(C)nc(N(C)c2ccc(OC)cc2)c1Cl` strictly below 200 nM? 1

Quick check: IC50 of `CSc1ccc(N(C)c2nc(C)nc(N)c2Cl)cc1` under 200 nM? 1
